Exercise: for every item that follows, state its recorded protein stability index.
B1: VPS39 (parent)
chain: ITEEKVCMVCKKKIGNSAFARYPN

# Variants of: B1
# assay-procedure: protein stability index of a GFP-peptide fusion (GPS, HEK-293T) (PSI 1-6); higher = more stable;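 also: lentivirally expressed fusions sorted by FACS into six bins by GFP to DsRed ratio, PSI derived from sequencing read proportions per bin multiplied by bin number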
# measurement-conditions: c terminus: a fixed tail appended
Give bare numbers.

Illustrative cases are given below, each with its answer.
In [3]: df
Out[3]:
   variant_key  recorded_value
0          K5M            2.23
1          T2V            2.67
2         F19Y            3.06
3         G15W            2.35
4         Y22M             2.9
5          V6F            2.39

For each of the variants below, state protein stability index.
1. I1T
2. I1L
3. R21G
4. K12G
5. E4D

[2.88, 2.5, 2.83, 1.97, 2.94]
